# Tested on: ISC-enriched organoids
# assay_notes: Primary screen, 384-well 2.5-D organoid differentiation (ENR+CD, 6 days): carbachol-induced lysozyme secretion (LYZ.S)
# Format: cell-based, murine
# assay_context: standard z score; primary screen; 2nd of the 4 dose lines of the treatment (dose not given)
property: Z.LYZ.S
Kindly provide the number alone.

As a guide, the following entries are already answered.
Query :: I would be grateful if you could share the reported Z.LYZ.S for O=C(c1cn(Cc2cncn2Cc2ccc(Br)cc2)cc1-c1cccc2ccccc12)N1CCOCC1 .
Result :: −0.934

Query :: I would be grateful if you could share the reported Z.LYZ.S for CNC(=O)[C@H](Cc1c[nH]c2ccccc12)NC(=O)[C@@H](CC(=O)NO)CC(C)C .
Result :: 0.754

Query :: I would be grateful if you could share the reported Z.LYZ.S for O=C(O)CCc1ccc(NCc2cccc(Oc3ccccc3)c2)cc1 .
Result :: 0.316

***
Query :: I would be grateful if you could share the reported Z.LYZ.S for O=C(Nc1ccccc1)N1CCN(c2nc(-c3ccccc3)ns2)CC1 .
Result :: 0.263

// data source = patent US20230398130A1
